# key: entry, value: Kd
# Assay: Dissociation constant for binding affinity towards Concanavalin A determined by fluorescence anisotropy inhibition assay
Response body: numeric value in µM, unit text excluded.

Take a look at these entries with their results.
| Smiles string | Kd, µM |
| --- | --- |
| CO[C@H]1O[C@@H](CO)[C@@H](O)[C@H](O[C@H]2S[C@@H](CO)[C@@H](O)[C@H](O)[C@H]2O)[C@H]1O | 1720 |
| CO[C@H]1O[C@@H](CO)[C@@H](O)[C@H](O[C@H]2O[C@@H](CO)[C@@H](O)[C@H](O)[C@H]2O)[C@H]1O | 49 |
| CO[C@H]1O[C@@H](CO[C@H]2O[C@@H](CO)[C@@H](O)[C@H](O)[C@H]2O)[C@@H](O)[C@H](O)[C@H]1O | 150 |
| CO[C@H]1O[C@@H](CO[C@H]2S[C@@H](CO)[C@@H](O)[C@H](O)[C@H]2O)[C@@H](O)[C@H](O[C@H]2O[C@@H](CO)[C@@H](O)[C@H](O)[C@H]2O)[C@H]1O | 18 |

Next item in the queue.
input: Reported Kd for `CO[C@H]1O[C@@H](CO[C@H]2S[C@@H](CO)[C@@H](O)[C@H](O)[C@H]2O)[C@@H](O)[C@H](O)[C@H]1O` : what is it?
output: 1280
